Please go through the items and note down their pIC50.
- system-name: MAT2A (Homo sapiens, UniProt P31153)
- Construct: His6
- Sequence (P31153 whole entry): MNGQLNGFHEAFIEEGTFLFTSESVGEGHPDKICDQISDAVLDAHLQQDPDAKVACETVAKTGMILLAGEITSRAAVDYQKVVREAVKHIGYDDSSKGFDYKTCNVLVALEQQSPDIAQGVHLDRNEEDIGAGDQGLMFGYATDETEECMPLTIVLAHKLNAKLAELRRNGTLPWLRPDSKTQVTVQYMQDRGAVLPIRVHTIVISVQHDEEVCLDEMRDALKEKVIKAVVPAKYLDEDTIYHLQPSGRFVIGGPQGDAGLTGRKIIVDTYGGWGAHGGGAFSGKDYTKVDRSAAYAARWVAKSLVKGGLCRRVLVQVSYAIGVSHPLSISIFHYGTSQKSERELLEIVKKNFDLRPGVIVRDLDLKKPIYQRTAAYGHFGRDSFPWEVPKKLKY
- protocol-notes: MAT2A biochemical assay (colorimetric inorganic phosphate detection, PiColorLock)
- study-conditions: recombinant His6-tagged MAT2A 1 μg/ml; 60 minutes preincubation at 25° C.; L-Met 80 μM, ATP 100 μM; 60 minutes reaction; read at 623 nm; read-out: MAT2A Inhibition Score
pIC50: −log10 of the molar value.

Task: Given the compound COc1ccc(-c2c(Nc3ccccn3)[nH]c3c(-c4cccc(Cl)c4)c(-c4ccccc4)nn3c2=O)cc1 , what is its reported pIC50?
Output: > 7.00

Task: Given the compound O=c1c(-c2ccc3nccnc3c2)c(Nc2ccn[nH]2)[nH]c2c(C3=CCCCC3)c(-c3ccccc3)nn12 , what is its reported pIC50?
Output: > 7.00

Task: Given the compound Cc1[nH]c2c(-c3ccccc3)c(-c3ccncc3)nn2c(=O)c1-c1ccc2ncccc2c1 , what is its reported pIC50?
Output: 5.00 to 6.00

Task: Given the compound COc1ccc(-c2c(Nc3cc(C#N)ccn3)[nH]c3c(-c4ccccc4)c(-c4ccccc4)nn3c2=O)cc1 , what is its reported pIC50?
Output: > 7.00

Task: Given the compound COc1ccc(-c2c(Nc3ncnc(O)n3)[nH]c3c(-c4ccccc4)c(-c4ccccc4)nn3c2=O)cc1 , what is its reported pIC50?
Output: > 7.00

Task: Given the compound O=C(NCc1[nH]c2c(-c3ccccc3)c(-c3ccccc3)nn2c(=O)c1-c1ccc2ncccc2c1)C(F)(F)F , what is its reported pIC50?
Output: > 7.00

Task: Given the compound COc1ccc(-c2c(Nc3ncccn3)[nH]c3c(-c4ccccc4)c(-c4ccccc4)nn3c2=O)cc1 , what is its reported pIC50?
Output: > 7.00

Task: Given the compound CCOC(=O)c1nnc(Nc2[nH]c3c(-c4ccccc4)c(-c4ccccc4)nn3c(=O)c2-c2ccc3ncccc3c2)o1 , what is its reported pIC50?
Output: > 7.00

Task: Given the compound CCC(=O)Nc1[nH]c2c(-c3ccccc3)c(-c3ccccc3)nn2c(=O)c1-c1ccc2ncccc2c1 , what is its reported pIC50?
Output: 6.00 to 7.00

Task: Given the compound O=c1c(-c2ccc3ncccc3c2)c(CO)[nH]c2c(-c3ccccc3)c(-c3ccccc3)nn12 , what is its reported pIC50?
Output: 6.00 to 7.00

Task: Given the compound NC(=O)NCc1[nH]c2c(-c3ccccc3)c(-c3ccccc3)nn2c(=O)c1-c1ccc2ncccc2c1 , what is its reported pIC50?
Output: > 7.00

Task: Given the compound Cc1[nH]c2c(-c3ccccc3)c(-c3ccccc3)nn2c(=O)c1C1=CCC(=O)CC1 , what is its reported pIC50?
Output: 6.00 to 7.00

Task: Given the compound O=c1c(-c2ccc3ncccc3c2)c(Cc2ncn[nH]2)[nH]c2c(-c3ccccc3)c(-c3ccccc3)nn12 , what is its reported pIC50?
Output: 6.00 to 7.00

Task: Given the compound COc1ccc(-c2c(Nc3nccnc3O)[nH]c3c(-c4ccccc4)c(-c4ccccc4)nn3c2=O)cc1 , what is its reported pIC50?
Output: > 7.00

Task: Given the compound Cc1[nH]c2c(-c3ccccc3)c(-c3cc[nH]n3)nn2c(=O)c1-c1ccc2ncccc2c1 , what is its reported pIC50?
Output: > 7.00
